target_entity: UniProtKB G5EF15
Sequence (G5EF15 whole entry): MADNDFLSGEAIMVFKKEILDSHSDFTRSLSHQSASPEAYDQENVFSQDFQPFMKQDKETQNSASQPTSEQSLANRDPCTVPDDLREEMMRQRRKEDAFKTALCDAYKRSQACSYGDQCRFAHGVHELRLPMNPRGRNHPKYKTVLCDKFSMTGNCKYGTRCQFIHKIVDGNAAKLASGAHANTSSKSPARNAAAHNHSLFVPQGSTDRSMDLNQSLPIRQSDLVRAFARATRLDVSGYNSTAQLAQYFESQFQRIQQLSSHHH
measurement_description: disruptors of C. elegans POS-1 RNA interaction – biochemical, fluorescence polarization, dose response (AID 1964);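 also: purified POS-1 fused to maltose binding protein made in E. coli; potency of compounds blocking POS-1 binding to fluorescent RNA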
The source made the active and inactive calls.
property_label: EC50

Example cases with answers are listed next.
INSERT INTO assay_data (compound, property_label, result) VALUES
  ('CCCSc1nnc(NC(=O)Nc2ccccc2)s1', 'EC50', '> 300 µM (not active)'),
  ('NS(=O)(=O)c1ccc2c(c1)C1C=CCC1C(C1CC=CCC1)N2 (stereo not given)', 'EC50', '18.3 µM (active)'),
  ('COc1cc(C(CCN2CCCC2)c2c(OC)cc(OC)c3c(-c4ccccc4)cc(=O)oc23)cc(OC)c1OC (stereo not given)', 'EC50', '> 300 µM (not active)'),
  ('CCn1c(C)nc2cc(N)ccc21', 'EC50', '261 µM (active)'),
  ('COc1ccc(CCn2c(=N)c(C(=O)NC3CCCCC3)cc3c(=O)n4ccccc4nc32)cc1', 'EC50', '21.6 µM (active)');

Query (compound): "CCN1CCN(Cc2c(O)ccc3c2O/C(=C\c2ccc(C)cc2)C3=O)CC1" ; field requested: EC50
38.9 µM (active)

Look at this compound and give its reported EC50. "CCN(CC)CCN1C(=O)c2cccc3cc(N)cc(c23)C1=O"
6.62 µM (active)

Need EC50 of CC(=O)C1=C(c2ccccc2)NC(=O)NC1c1ccc(O)c(O)c1 (stereo not given) , thanks.
> 300 µM (not active)

# query: EC50 of entry "Cc1cc(/C=C2\SC(=S)N(Cc3ccco3)C2=O)c(C)n1-c1cccnc1"
11.3 µM (inconclusive)

Name the reported EC50 value associated with the compound "Cc1cc(C)nc(NN2C(=O)C=CC2=O)n1"
> 300 µM (not active)

###

target_entity: Genome polyprotein (dengue virus type 2, UniProt P29990)
Sequence (P29990 2492-3391 limits assumed): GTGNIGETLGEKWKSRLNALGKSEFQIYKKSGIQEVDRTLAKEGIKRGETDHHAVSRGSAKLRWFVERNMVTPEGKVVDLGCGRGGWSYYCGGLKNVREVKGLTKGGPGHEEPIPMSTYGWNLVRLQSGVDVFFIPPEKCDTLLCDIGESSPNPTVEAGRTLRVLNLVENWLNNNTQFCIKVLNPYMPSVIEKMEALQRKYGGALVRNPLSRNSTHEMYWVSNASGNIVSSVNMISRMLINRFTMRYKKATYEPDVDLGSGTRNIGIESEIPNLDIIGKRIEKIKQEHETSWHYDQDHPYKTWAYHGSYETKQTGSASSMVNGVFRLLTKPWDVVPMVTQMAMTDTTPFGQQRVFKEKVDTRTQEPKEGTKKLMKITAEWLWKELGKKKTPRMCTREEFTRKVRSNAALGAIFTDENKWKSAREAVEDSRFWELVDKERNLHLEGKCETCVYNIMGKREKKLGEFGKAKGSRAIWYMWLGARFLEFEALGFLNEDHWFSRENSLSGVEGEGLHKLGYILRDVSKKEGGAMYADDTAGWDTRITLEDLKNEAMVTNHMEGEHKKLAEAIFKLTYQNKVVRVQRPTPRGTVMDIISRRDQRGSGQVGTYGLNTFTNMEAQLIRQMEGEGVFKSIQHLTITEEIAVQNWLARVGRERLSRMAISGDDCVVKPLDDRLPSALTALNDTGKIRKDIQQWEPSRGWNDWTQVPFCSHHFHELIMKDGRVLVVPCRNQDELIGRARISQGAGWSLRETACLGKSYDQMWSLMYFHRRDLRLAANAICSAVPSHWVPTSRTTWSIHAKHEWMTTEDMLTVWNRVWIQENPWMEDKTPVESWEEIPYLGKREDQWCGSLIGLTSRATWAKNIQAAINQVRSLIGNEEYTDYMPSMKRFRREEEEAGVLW
measurement_description: flavivirus cap methylation enzyme inhibition – biochemical, confirmation dose response, primary screen (AID 588689)
Assay type: functional
Activity calls are given as the source filed them.
property_label: IC50

Some solved entries appear below for comparison.
INSERT INTO results (compound, result) VALUES
  ('CCOc1ccc(/C=C2\SC(=S)N(CCC(=O)Nc3ccccc3C(=O)O)C2=O)cc1', '29.3 µM (active)'),
  ('O=C1NN(c2cccc(Br)c2)C(=O)/C1=C\c1ccc(O)cc1', '> 100 µM (active)'),
  ('O=C1NC(=O)C(=Cc2ccc(N3CCN(C(=O)c4ccccc4)CC3)c([N+](=O)[O-])c2)C(=O)N1', '19.8 µM (active)'),
  ('O=C1NC(=O)C(=Cc2coc3ccc(O)cc3c2=O)C(=O)N1', '> 100 µM (active)'),
  ('CC1=C(SCc2ccccc2)C(=O)c2ccccc2C1=O', '76.8 µM (active)'),
  ('CCC(C)/C=C(C)/C=C/C1=CC2=C(Cl)C(=O)C(C)(OC(C)=O)C(=O)C2=CO1 (centres undefined)', '38 µM (active)');

Can you look up the measured IC50 of "O=C1OC(c2ccc3ccccc3c2O)(c2ccc3ccccc3c2O)c2ccccc21" for me?
19 µM (active)

What value of measured IC50 is listed for "Cc1noc(NS(=O)(=O)c2ccc(NC(=O)c3ccccc3NS(=O)(=O)c3ccc(F)c(F)c3)cc2)c1C" ?
33.2 µM (active)

Recorded IC50 of "O=C(CCN1C(=O)/C(=C/c2ccc3c(c2)OCO3)SC1=S)Nc1cccc(C(=O)O)c1" , please.
47 µM (active)

Need IC50 of Cc1cc(N2C(=O)C(O)=C(C(=O)c3ccc(C)o3)C2c2ccc(OCc3ccccc3)cc2)no1 (centres undefined) , thanks.
> 100 µM (active)

State the recorded IC50 for this entry: "COc1cc(/C=C2/C(=O)NN(c3ccc(F)cc3)C2=O)cc([N+](=O)[O-])c1O"
> 100 µM (active)

# lookup: IC50 of "Cc1ccc(S(=O)(=O)N2[C@@H](c3ccc(Br)cc3)C(C(=O)O)=C[C@H]2CC2CCCC2)cc1"
37 µM (active)

Fill blank: measured IC50 of the compound "Oc1cc(CNCc2ccccc2)c(O)cc1CNCc1ccccc1" is ____.
37.4 µM (active)

Consider the compound "O=S(=O)(O)c1cc(Cl)cc(N=Nc2ccc(O)cc2O)c1O" and give its measured IC50.
58.3 µM (active)

###

target_entity: Protein skinhead-1 (Caenorhabditis elegans)
Sequence (P34707 whole entry): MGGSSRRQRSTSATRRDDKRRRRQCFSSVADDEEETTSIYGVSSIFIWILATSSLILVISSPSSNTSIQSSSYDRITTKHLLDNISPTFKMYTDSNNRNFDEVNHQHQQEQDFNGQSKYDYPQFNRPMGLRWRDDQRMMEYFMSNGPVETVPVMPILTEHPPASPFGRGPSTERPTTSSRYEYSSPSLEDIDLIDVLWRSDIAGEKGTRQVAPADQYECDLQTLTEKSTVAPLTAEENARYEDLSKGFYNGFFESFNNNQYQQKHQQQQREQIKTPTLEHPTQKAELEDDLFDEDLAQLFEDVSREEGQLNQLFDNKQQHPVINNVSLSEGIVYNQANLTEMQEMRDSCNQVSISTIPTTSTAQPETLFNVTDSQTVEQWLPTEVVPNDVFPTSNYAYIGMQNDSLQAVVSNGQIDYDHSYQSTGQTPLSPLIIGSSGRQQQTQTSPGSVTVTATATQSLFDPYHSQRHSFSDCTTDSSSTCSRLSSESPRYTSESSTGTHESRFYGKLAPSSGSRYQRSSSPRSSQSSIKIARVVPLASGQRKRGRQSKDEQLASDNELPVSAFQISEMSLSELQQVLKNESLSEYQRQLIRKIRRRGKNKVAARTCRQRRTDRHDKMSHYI
Format: functional
Calls of active or inactive are those of the source.
property_label: IC50

// below: answered compounds
INSERT INTO measurements (compound, target_entity, property_label, result) VALUES
  ('CN(N=O)c1ccc(CC2CCc3ccccc32)cc1 (stereo unspecified)', 'Protein skinhead-1 (Caenorhabditis elegans)', 'IC50', '58.5 µM (inactive)'),
  ('CCCN1C(=O)/C(=C/c2ccc(N3CCCC3)c(C)c2)NC1=S', 'Protein skinhead-1 (Caenorhabditis elegans)', 'IC50', '> 100 µM (inactive)'),
  ('O=C(Nc1ccc(-c2nnc(-c3ccccc3)o2)cc1)c1ccc(Br)o1', 'Protein skinhead-1 (Caenorhabditis elegans)', 'IC50', '76.3 µM (inactive)');

// lookup IC50 | system=Protein skinhead-1 (Caenorhabditis elegans) | key= "CCN(CC)C(=O)Oc1ccc(Br)c2ccccc12"
> 100 µM (inactive)

Look up IC50 with Protein skinhead-1 (Caenorhabditis elegans) for this compound: "CCOc1ccc2nc(N(CCN(C)C)C(=O)c3cc4ccccc4cc3OC)sc2c1"
> 100 µM (inactive)

Form: Entry = Cc1ccc(C2CC(C(F)(F)F)n3nc(C(=O)NCc4c(C)nn(C)c4C)c(Cl)c3N2)cc1 (stereo unspecified) | System = Protein skinhead-1 (Caenorhabditis elegans) | IC50 = ____
> 100 µM (inactive)

What value of IC50 on Protein skinhead-1 (Caenorhabditis elegans) does "COc1ccc(CN2CCN(c3ccccc3F)CC2)cc1O" have?
> 100 µM (inactive)

Missing value: IC50, Protein skinhead-1 (Caenorhabditis elegans), entry "COCC(=O)NCc1ccc2c(c1)cc(C)n2C" . Fill in?
> 100 µM (inactive)

Notebook: pull reported IC50 for Protein skinhead-1 (Caenorhabditis elegans), entry "Cn1nnnc1SCC(=O)N1CCN(c2cccc(Cl)c2)CC1"
> 100 µM (inactive)

// lookup IC50 | system=Protein skinhead-1 (Caenorhabditis elegans) | key= "COc1ccc2c(c1)sc1nc(-c3ccccc3)cn12"
> 100 µM (inactive)

Which IC50 is reported with Protein skinhead-1 (Caenorhabditis elegans) for this entry: "Cn1/c(=N/C(=O)C2CC2)sc2cc(F)cc(F)c21" ?
> 100 µM (inactive)

###

target_entity: Cytochrome P450 2C19 (Homo sapiens)
Sequence (P33261 whole entry): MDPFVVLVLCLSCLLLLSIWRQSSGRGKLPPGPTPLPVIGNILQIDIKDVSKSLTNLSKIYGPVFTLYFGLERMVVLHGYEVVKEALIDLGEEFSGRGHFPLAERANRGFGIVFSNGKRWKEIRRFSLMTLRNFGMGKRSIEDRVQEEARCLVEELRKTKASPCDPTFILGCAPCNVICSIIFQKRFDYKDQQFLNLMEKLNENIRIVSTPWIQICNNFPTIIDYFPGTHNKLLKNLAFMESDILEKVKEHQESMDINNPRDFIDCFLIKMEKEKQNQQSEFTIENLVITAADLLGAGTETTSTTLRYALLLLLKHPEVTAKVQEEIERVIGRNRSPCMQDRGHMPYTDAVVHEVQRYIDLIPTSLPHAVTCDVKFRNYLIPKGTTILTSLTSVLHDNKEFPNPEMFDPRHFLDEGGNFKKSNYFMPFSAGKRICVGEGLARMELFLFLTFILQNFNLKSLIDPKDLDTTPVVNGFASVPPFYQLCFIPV
measurement_description: Cytochrome panel assay with activity outcomes. Panel member name: p450-cyp2c19 Compounds with AC50 equal or less than 10 uM are considered active
Format: functional
run_parameters: read-out: AC50
property_label: AC50

Example cases with answers are listed next.
INSERT INTO assay_data (compound, result) VALUES
  ('Cc1cnn(-c2ccc3nnc(-c4ccc(Cl)cc4)n3n2)c1', '1.41 µM (inconclusive)'),
  ('Cc1cc(N2C(=O)C(O)=C(C(=O)c3ccco3)C2c2ccc(O)cc2)no1 (configuration not stated)', '35.5 µM (inconclusive)'),
  ('O=C1N[C@@]2(CN3CCC2CC3)C(=O)N1CN(Cc1ccccc1)c1ccccc1', '1.58 µM (inconclusive)'),
  ('CC(=O)Nc1ccc(C#Cc2ccc(NC(C)=O)cc2)cc1', '0.00631 µM (inconclusive)'),
  ('Cc1cnc(CNc2ncncc2-c2ccccc2C(F)(F)F)cn1', '39.8 µM (inconclusive)'),
  ('CC(C)C(=O)Nc1ccc([N+](=O)[O-])c(C(F)(F)F)c1 [FLUTAMIDE]', '10 µM (inconclusive)');

Please tell me: AC50 of "COC(=O)N1CCC2(CCN(C(=O)Nc3ccccc3)CC2)CC1" , system Cytochrome P450 2C19 (Homo sapiens)?
20 µM (inconclusive)

Recall the recorded AC50 for "COC(=O)c1nn(C23CC4CC(CC(C4)C2)C3)c2c1C(=O)N(c1ccc(F)cc1)C2=O" with Cytochrome P450 2C19 (Homo sapiens) and state it.
39.8 µM (inconclusive)

Return AC50 measured with Cytochrome P450 2C19 (Homo sapiens) given this compound: "Cc1c(N2C(=O)CS/C2=N\N=C\c2ccc(Cl)cc2)c(=O)n(-c2ccccc2)n1C"
39.8 µM (inconclusive)

Provide value of AC50 for this record tested with Cytochrome P450 2C19 (Homo sapiens): "Cc1ccc(C)c(-c2cc(C(=O)NCc3cccs3)c3ccccc3n2)c1"
3.55 µM (inconclusive)

Give AC50 (Cytochrome P450 2C19 (Homo sapiens)) of the following compound: "C=C(CC1([C@@H](NP(=O)(c2ccccc2)c2ccccc2)[C@H]2C[C@@H]2CCCC)CC1)c1cccc(OC)c1"
15.8 µM (inconclusive)

What reported AC50 corresponds to Cc1ccc(S(C)=NS(=O)(=O)c2ccc(C)cc2)cc1 (configuration not stated) on Cytochrome P450 2C19 (Homo sapiens)?
7.08 µM (inconclusive)

Find the measured AC50: item CCOC(=O)C1=NNC2(c3ccc(Cl)cc3)C(=O)N(c3cc(C)cc(C)c3)C(=O)C12 (configuration not stated) , target or system Cytochrome P450 2C19 (Homo sapiens).
2.51 µM (inconclusive)

Given the entry "Cc1ccc(NC(=O)CCN2C(=O)c3ccncc3C2=O)cc1" , what AC50 was observed with Cytochrome P450 2C19 (Homo sapiens)?
39.8 µM (inconclusive)

Please state recorded AC50 (tested on Cytochrome P450 2C19 (Homo sapiens)) of "C=CCN1C(=O)NC(=O)/C(=C(/CC)NC2CC2)C1=O"
22.4 µM (inconclusive)

Give recorded AC50 with Cytochrome P450 2C19 (Homo sapiens) for the following compound: "Cc1cc(=O)oc(C)c1C(=O)Nc1ccc(Cl)cn1"
2.24 µM (inconclusive)

What value of AC50 on Cytochrome P450 2C19 (Homo sapiens) does CCCCNC(=O)CN1C(=O)NC2(CCCc3ccccc32)C1=O (configuration not stated) have?
31.6 µM (inconclusive)
